- target.of.assay: Mitogen-activated protein kinase 1 (Homo sapiens, UniProt P28482)
- Sequence (P28482 whole entry): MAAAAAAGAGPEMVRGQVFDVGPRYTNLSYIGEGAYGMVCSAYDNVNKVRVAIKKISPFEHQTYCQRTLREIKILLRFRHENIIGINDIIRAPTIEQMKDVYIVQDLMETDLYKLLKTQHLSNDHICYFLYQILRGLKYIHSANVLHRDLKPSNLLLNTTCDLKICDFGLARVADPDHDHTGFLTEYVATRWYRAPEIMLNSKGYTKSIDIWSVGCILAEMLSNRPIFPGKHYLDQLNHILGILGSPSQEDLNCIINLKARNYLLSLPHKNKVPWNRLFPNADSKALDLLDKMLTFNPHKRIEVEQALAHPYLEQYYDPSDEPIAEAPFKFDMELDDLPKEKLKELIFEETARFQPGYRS
- run.description: Assay 1
Just a reminder that ties go to not satisfied: only Ki strictly below 400 nM counts as satisfied.

1) O=C(N[C@H](CO)c1ccccc1)c1cc(-c2n[nH]cc2-c2cccc(C(F)(F)F)c2)c[nH]1 [erk000184] = satisfied
2) CC[C@@H](COC(=O)COCCOC)Nc1ncc(C)c(-c2c[nH]c(C(=O)N[C@H](CO)c3cccc(Cl)c3)c2)n1 [erk000698] = satisfied
3) CC[C@@H](COP(=O)(O)O)Nc1ncc(C)c(-c2c[nH]c(C(=O)N[C@H](CO)c3cccc(Cl)c3)c2)n1 [erk000722] = not satisfied
4) Fc1ccc(-c2n[nH]cc2-c2ccnc(NC3CCCCC3)c2)cc1 [erk000125] = not satisfied
5) Cc1cnc(NCC2CC2)nc1-c1c[nH]c(C(=O)N[C@H](CO)c2ccccc2)c1 [erk000453] = satisfied
6) Cc1cnc(N)nc1-c1c[nH]c(C(=O)NCc2ccc(F)c(Cl)c2)c1 [erk000304] = satisfied
7) Cc1cnc(NC2CCC2)nc1-c1c[nH]c(C(=O)N[C@H](CO)c2ccccc2)c1 [erk000540] = satisfied
8) Cc1cnc(Nc2nc(N3CCCCC3)nc3ccccc23)nc1-c1c[nH]c(C(=O)NCc2ccccc2)c1 [erk000377] = not satisfied
9) NCc1ccc(-c2cn[nH]c2-c2c[nH]c(C(=O)NCc3ccc4c(c3)CCO4)c2)cc1C(F)(F)F [erk000282] = satisfied
10) Cc1cnc(Nc2ccccc2)nc1-c1c[nH]c(C(=O)NCc2ccc(F)c(Cl)c2)c1 [erk000398] = satisfied
11) Cc1cnc(N)nc1-c1c[nH]c(C(=O)N[C@H](CCO)c2ccccc2)c1 [erk000306] = not satisfied
12) Cc1ccc(-c2csc(Nc3ncc(C)c(-c4c[nH]c(C(=O)N[C@H](CO)c5ccccc5)c4)n3)n2)cc1 [erk000588] = satisfied
13) COc1ccccc1CNC(=O)c1cc(-c2nc(N)ncc2C)c[nH]1 [erk000312] = not satisfied
14) CC[C@@H](CO)Nc1ncc(Cl)c(-c2cc(C(=O)N[C@H](CO)c3ccccc3)n(C)c2)n1 [erk000710] = satisfied
15) Cc1cnc(NOCCO)nc1-c1c[nH]c(C(=O)N[C@H](CO)c2ccccc2)c1 [erk000504] = satisfied
16) Cc1cnc(-c2ccccc2)nc1-c1c[nH]c(C(=O)N[C@H](CO)c2ccccc2)c1 [erk000501] = satisfied

* * *

- target.of.assay: Mitogen-activated protein kinase 1 (Homo sapiens)
- run.description: Assay 1
pKi: −log10 of the molar value.
property.measured: pKi

1) CC[C@@H](COC(=O)C(C)C)Nc1ncc(Cl)c(-c2c[nH]c(C(=O)N[C@H](COC(=O)C(C)C)c3ccccc3)c2)n1 = 6.82
2) Cc1cnc(N[C@H]2CCC[C@H]2OCc2ccccc2)nc1-c1c[nH]c(C(=O)N[C@H](CO)c2cccc(Cl)c2)c1 = 7.77
3) Cc1cnc(NOC(C)C)nc1-c1c[nH]c(C(=O)N[C@H](CO)c2ccccc2)c1 = 8.00
4) Nc1nccc(-c2c[nH]c(C(=O)NCc3cccc(Cl)c3)c2)n1 = 6.28
5) Cc1cnc(N)nc1-c1cc(C(=O)N[C@H](CO)c2ccccc2)n(Cc2ccccc2)c1 = 5.40
6) Cc1cccc([C@@H](CO)NC(=O)c2cc(-c3nc(Nc4cccc(F)c4C)ncc3C)c[nH]2)c1 = 8.10
7) Cc1cnc(N[C@@H](CO)CC(F)(F)F)nc1-c1c[nH]c(C(=O)N[C@H](CO)c2cccc(Cl)c2)c1 = 8.10
